The origin of these recorded values is patent US20250360145A1.

- test details: In vivo PK study (plasma and brain exposure)
- Parameters: species or system CD1 mouse
- recorded conditions: male, CD1, po; mouse, p.o. 45 mg/kg, brain; read-out: PO-45mpk AUClast-brain
So basically, the class depends on measured AUC(0-t), and the ranges are Low: < 30000 ng·h/mL; Mid: ≥ 30000 ng·h/mL and < 50000 ng·h/mL; High: ≥ 50000 ng·h/mL

Observe how each entry below is paired with its result.
CNC(=O)c1cc(Oc2ccc3nc(N[C@@H]4CCCC[C@H]4O)sc3c2)ccn1 [BLZ945, reference compound]: Low
COc1cnc2c(Cc3cnc(OCc4cc5n(n4)CCOC5)c(OC)c3)ccnc2c1: Mid
COc1ccc(COc2ncc(Cc3ccnc4cc(-c5ccn(C)n5)cnc34)cc2OC)nc1: Mid
COc1ncc(F)cc1CNc1ccc(Cc2c[nH]c3ncc(C)cc23)c(F)n1 [PLX5622, reference compound]: Mid
COc1ccc(COc2ncc(Cc3ccnc(-c4cnn(C)c4)n3)cc2OC)nc1 [Comparator A, reference compound]: High

Hi, small favor: classify COc1cnc2c(Cc3cnc(OCc4ccc(C(F)(F)F)nc4)c(OC)c3)ccnc2c1 by its AUC(0-t) when you get a moment.
High

Which category does the recorded AUC(0-t) put COc1ccc(COc2ncc(Cc3ccnc4cc(OC)cnc34)cc2OC)nc1 in?
High

Field: class (AUC(0-t)) — entry: COc1ccc(COc2ncc(Cc3ccnc4cc(N5CCN(C)CC5)cnc34)cc2OC)nc1
Low

// return the class label for COc1cnc2c(Cc3cnc(OCc4cc5n(n4)C[C@H](OC)C5)c(OC)c3)ccnc2c1
Low

Which bin should I file COc1ccc(COc2ccc(Cc3cnc(N)nc3N)cc2OC)cc1 [GW2580, reference compound] under?
High

====

- test target: CSF-1R (Homo sapiens (Human), UniProt P07333)
- Sequence (P07333 20-972): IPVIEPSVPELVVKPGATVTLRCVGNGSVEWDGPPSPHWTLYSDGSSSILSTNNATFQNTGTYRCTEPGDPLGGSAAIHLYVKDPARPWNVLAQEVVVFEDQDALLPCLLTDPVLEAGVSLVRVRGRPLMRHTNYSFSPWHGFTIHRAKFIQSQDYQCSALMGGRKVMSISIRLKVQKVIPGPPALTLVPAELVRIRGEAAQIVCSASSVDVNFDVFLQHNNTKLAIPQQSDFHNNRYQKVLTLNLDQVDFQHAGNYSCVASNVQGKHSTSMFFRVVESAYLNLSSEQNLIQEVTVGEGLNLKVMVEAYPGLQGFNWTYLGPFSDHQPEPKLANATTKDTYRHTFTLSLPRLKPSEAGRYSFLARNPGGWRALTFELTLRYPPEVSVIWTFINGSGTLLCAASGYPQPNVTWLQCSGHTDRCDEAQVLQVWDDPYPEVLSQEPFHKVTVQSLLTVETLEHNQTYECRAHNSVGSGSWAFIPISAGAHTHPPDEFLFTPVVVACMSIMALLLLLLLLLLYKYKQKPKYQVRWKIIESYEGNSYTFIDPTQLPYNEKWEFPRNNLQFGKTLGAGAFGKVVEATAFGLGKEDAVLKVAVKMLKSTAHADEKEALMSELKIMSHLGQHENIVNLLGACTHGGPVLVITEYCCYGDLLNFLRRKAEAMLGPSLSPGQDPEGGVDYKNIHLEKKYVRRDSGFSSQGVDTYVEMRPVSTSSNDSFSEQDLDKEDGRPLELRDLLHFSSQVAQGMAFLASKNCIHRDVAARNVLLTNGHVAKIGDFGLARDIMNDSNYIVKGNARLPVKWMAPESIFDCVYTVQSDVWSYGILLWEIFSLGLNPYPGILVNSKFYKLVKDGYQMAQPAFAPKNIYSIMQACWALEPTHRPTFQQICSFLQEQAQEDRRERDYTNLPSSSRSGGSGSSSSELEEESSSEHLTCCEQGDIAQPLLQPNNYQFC
- test details: Biochemical HTRF kinase assay, CSF-1R
- recorded conditions: Table 2; recombinant human CSF-1R
measured attribute: IC50 (nM)
One number for each entry, in nM.

COc1cnc2c(Cc3cnc(OCc4cc5n(n4)CC4(CC4)C5)c(OC)c3)ccnc2c1: 1.9
COc1cnc2c(Cc3cnc(OCc4cc5n(n4)CCOC5(C)C)c(OC)c3)ccnc2c1: 5.6
COc1ccc(COc2ccc(Cc3ccnc4ccncc34)cc2OC)cc1: 5.7
COc1ccc2c(Cc3ccc(OCc4ccccn4)c(OC)c3)ccnc2c1: 169
COc1cnc2c(Cc3cnc(OCc4cc(F)cnc4OC)c(OC)c3)ccnc2c1: 39.9
COc1cnc2c(Cc3cnc(OCc4cc(C5COC5)no4)c(OC)c3)ccnc2c1: 17.4

List the reported IC50 of each compound below.
1. COc1ccc(COc2ncc(Cc3ccnc4cc(-n5ccnc5C)cnc34)cc2OC)nc1
2. COc1ccc2c(Cc3cnc(OCc4cnn(C)c4)c(OC)c3)ccnc2c1
3. COc1cnc2c(Cc3cnc(OCc4cc5n(n4)C(C)COC5)c(OC)c3)ccnc2c1 (stereo not drawn)

[15.7, 21.3, 1.9]

====

- test target: CSF-1R (Homo sapiens (Human), UniProt P07333)
- test details: Biochemical HTRF kinase assay, CSF-1R;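 note: enzyme incubated with inhibitor plus a substrate and ATP mix for one hour at room temperature before HTRF detection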
- recorded conditions: Table 3; recombinant human CSF-1R
measured attribute: pIC50
Give bare numbers, as −log10 of the molar value.

Below: 3 compounds and their reported pIC50.
[2H]C([2H])([2H])Oc1cc(Cc2ccnc3cc(OC)cnc23)cnc1OCc1ccc(OC)cn1: 8.48
COc1cnc2c(Cc3cnc(OCc4cc(C)n(C5COC5)n4)c(OC)c3)ccnc2c1: 8.31
COc1cnc2c(Cc3cnc(OCc4cc(C)n(C)n4)c(OC)c3)ccnc2c1: 8.34

Could I get pIC50 for every one of these entries?
1. COc1ccc(COc2ncc(Cc3ccnc4cc(N(C)C)cnc34)cc2OC)nc1
2. COc1cnc2c(Cc3cnc(OCc4ccc([C@H]5CC5(F)F)cn4)c(OC)c3)ccnc2c1 (stereo in doubt) [Example 80]
3. COc1cnc2c(Cc3cnc(OCc4ccc([C@H]5CC5(F)F)cn4)c(OC)c3)ccnc2c1 (stereo in doubt) [Example 81]
4. COc1cnc2c(Cc3cnc(OCc4cc5n(n4)C[C@H](OC)C5)c(OC)c3)ccnc2c1
5. COc1cnc2c(Cc3cnc(OCc4ccc(C5CC5)cn4)c(OC)c3)ccnc2c1
6. COc1cnc2c(Cc3cnc(OCc4cc5n(n4)CCC5)c(OC)c3)ccnc2c1
7. COc1ccc(COc2ncc(Cc3ccnc4cc(OC)cnc34)cc2OC)nc1

[8.66, 8.40, 8.29, 8.30, 8.36, 8.66, 8.68]

State recorded pIC50 for all listed compounds.
1. COc1cnc2c(Cc3cnc(OCc4cnc5c(c4)OCCN5C)c(OC)c3)ccnc2c1
2. [2H]C([2H])([2H])Oc1cnc2c(Cc3cnc(OCc4ccc(OC)cn4)c(OC)c3)ccnc2c1
3. [2H]C([2H])([2H])Oc1ccc(COc2ncc(Cc3ccnc4cc(OC)cnc34)cc2OC)nc1
4. COc1cnc2c(Cc3cnc(OCc4cc(C(C)C)n(C)n4)c(OC)c3)ccnc2c1

1. 9.08
2. 8.44
3. 8.17
4. 8.68

Give pIC50 for all compounds that follow.
1. COc1cnc2c(Cc3cnc(OCc4ccc(C5CC5(F)F)cn4)c(OC)c3)ccnc2c1 (stereo not shown)
2. COc1ccc(COc2ncc(Cc3ccnc4cc(-c5ccn(C)n5)cnc34)cc2OC)nc1
3. COc1cnc2c(Cc3cnc(OCc4ccc(C)cn4)c(OC)c3)ccnc2c1
4. COc1cnc2c(Cc3cnc(OCc4cc5n(n4)C[C@H](F)C5)c(OC)c3)ccnc2c1

1. 8.52
2. 8.18
3. 8.49
4. 8.33
